Answer each item with its documented log10(solubility kinetic).
conditions: buffer; pH 7.4; 200.0 µM
Log10 applied to solubility kinetic; unit prior to transform: µg/mL.

Form field: reported log10(solubility kinetic) of "N/C(=N\OC(=O)c1ccc(Br)o1)c1cccnc1" 1.59

# log10(solubility kinetic) lookup, item "CN(Cc1ccccc1)C(=O)c1ccc(COc2ccccc2)cc1" 0.65

Which log10(solubility kinetic) is listed for "Nc1ccc(C(=O)[O-])cc1.[K+]" ? 1.38

Give the measured log10(solubility kinetic) of "O=C(CS(=O)(=O)Cc1ccccc1)Nc1ccc2c(c1)OCO2" . 1.20

Item "COC(=O)/C=C1\SC(=Nc2ccc(OC)cc2)NC1=O" has what recorded log10(solubility kinetic)? 0.28

Recorded log10(solubility kinetic) for "Cc1ccc(OCCn2c(C)nc3ccccc32)cc1" , please? 0.98

Query (molecule): Cc1ccc(N(CC(=O)NCC2CCCO2)S(=O)(=O)c2ccc(Cl)cc2)cc1C (stereo not drawn) ; field requested: log10(solubility kinetic) 1.60

Need log10(solubility kinetic) of "CCOC(=O)CSc1nc(C)c2cc(C)c(C)cc2n1" , thanks. 0.78

###

conditions: buffer; pH 7.4; 200.0 µM
metric: solubility kinetic (µg/mL)
Please state the figure in µg/mL; there is no need to write the unit.

Entry "Fc1ccc(CN2CCC(Cc3ccccc3)CC2)cc1F" has what solubility kinetic? 8

Request the reported solubility kinetic associated with "Cc1cc(Nc2ccccc2Cl)nc(-c2ccccc2O)n1" 1.3

Given the entry "Nc1cc(S(=O)(=O)N2CCOCC2)ccc1N1CCCCC1" , report its measured solubility kinetic. 42.2

I'd like to know its solubility kinetic. The molecule in question is "Cc1ccc(Cl)cc1NC(=O)N[C@@H](CC(C)C)C(=O)O" 43.8

Requested read-out: solubility kinetic. Entry: "NS(=O)(=O)c1ccc(-n2cccc2C=O)cc1" 36.1

Would you kindly share the measured solubility kinetic for "COc1cccc(/C=C/C(=O)OCC(=O)NCCCc2ccccc2)c1OC" ? 5.6

Fill in the blank: the reported solubility kinetic of "CCn1c2ccccc2c2cc(CC(N)=O)ccc21" is ____. 8

Please look up its solubility kinetic: "O=C(Nc1ccc(CN2CCOCC2)cc1)c1cc(Br)ccc1Cl" 57

Given "S=C(NC1CC1)SCc1ccco1" , state its recorded solubility kinetic. 10.3

Fill in the blank: the reported solubility kinetic of "COc1ccc(C)cc1S(=O)(=O)NC1CCCCCC1" is ____. 4.8

Return reported solubility kinetic; argument: O=C(OC(C(=O)NCc1ccccc1)c1ccccc1)c1ccco1 (stereo unspecified) 41.8

Which solubility kinetic is listed for "CC(=O)c1sc(NC(=O)c2cccc(C)c2)nc1C" ? 16.8

Item under review: "O=c1oc2cccnc2n1CCS(=O)(=O)c1ccc(F)cc1" . Reported solubility kinetic? 45

Consider the molecule CC(=O)c1ccc(NC(=S)NCC(c2ccco2)N2CCCC2)cc1 (stereo unspecified) and give its measured solubility kinetic. 52.5

GET /values?readout=solubility kinetic&item= COc1cccc(C(NC(C)=O)c2ccc3cccnc3c2O)c1 (stereo unspecified) 44.4

Param item = "O=C(COc1ccc(Cl)cc1Cl)OCC(=O)c1ccc[nH]1" ; retrieve measured solubility kinetic. 8.2

Look at this molecule and give its reported solubility kinetic. ClCC1CN(Cc2ccccc2Cl)CCO1 (stereo unspecified) 17.3

Need solubility kinetic of "CS(=O)(=O)N1CCC(C(=O)Nc2cccc([N+](=O)[O-])c2)CC1" , thanks. 44.3

Fill blank: measured solubility kinetic of the molecule "CN1CCN(C(=O)CN(C)S(=O)(=O)c2ccc(F)cc2)CC1" is ____. 44.7

Please report the recorded solubility kinetic for "CC(=O)c1ccc(NC(=O)/C(C#N)=C/c2ccncc2)cc1" . 43.2

Give the measured solubility kinetic of CC(NC(=O)c1cc2ccccc2oc1=O)c1ccc(O)cc1 (stereo unspecified) . 27.3

Fill in the blank: the reported solubility kinetic of "Cc1ccc(NC(=O)c2ccccc2F)c(NC(=O)c2ccccc2F)c1" is ____. 6.4

Looking for the measured solubility kinetic of "N#C/C(=C\Nc1ccccn1)S(=O)(=O)c1ccc(Cl)cc1" , can you help? 0.4

Requested read-out: solubility kinetic. Entry: "CC(=NCCC1=CCCCC1)c1c(O)n(-c2ccccc2)c(=O)[nH]c1=O" 10

Which measured solubility kinetic value corresponds to "Nc1ccc(C(=O)NC23CC4CC(CC(C4)C2)C3)cc1" ? 37.3

Requested field: solubility kinetic. Item: "O=C(/C=C/c1ccc([N+](=O)[O-])cc1)NCc1ccc2c(c1)OCO2" 0.9

###

settings: buffer; pH 7.4; 200.0 µM
Consider the following compounds; for each one, report its log10(solubility kinetic).
Recorded solubility kinetic (log10, µg/mL)

Can you share its log10(solubility kinetic)? I mean this compound: "O=C(C1CCN(S(=O)(=O)c2ccccc2)CC1)N1CCCCC1" 1.70

What does the record list as log10(solubility kinetic) for "COc1ccc(NC(=O)c2cccc(NS(=O)(=O)c3ccccc3)c2)cc1" ? 1.53

Please look up its log10(solubility kinetic): "CC(=O)c1cccc(NC(=O)c2cc(-c3ccco3)on2)c1" 0.32

Return reported log10(solubility kinetic); argument: "COc1ccc(S(=O)(=O)NCc2ccccc2)cc1Br" 0.63

Which log10(solubility kinetic) value belongs to "COc1ccccc1CC(=O)NCCc1c[nH]c2ccccc12" ? 1.65

Quick one: log10(solubility kinetic) for "O=C(CN1CCC(NC(=O)C2CC2)CC1)Nc1ccccc1[N+](=O)[O-]" ? 1.67

Which value of log10(solubility kinetic) has been reported for "O=C1CN(C(=O)COC(=O)CCC(=O)c2ccc(F)cc2)c2ccccc2N1" in the records? 1.50

Need log10(solubility kinetic), item "Cc1ccc(C)c(NCC(=O)c2ccc(Cl)cc2)c1" 0.34

Endpoint output: log10(solubility kinetic) of "S=C(NCc1ccccc1)N1CCN(c2ccccc2)CC1" . Value? -0.30

Please give the measured log10(solubility kinetic) for this compound: "O=C(Nc1ccc(F)c(Cl)c1)Nc1csc2ccccc12" 0.00

Looking for the measured log10(solubility kinetic) of "Cc1nc2cc(NC(=O)Nc3cccc([N+](=O)[O-])c3)ccc2n1C" , can you help? -0.22

I would be grateful if you could share the reported log10(solubility kinetic) for O=C(O)C1C2C=CC(C2)C1C(=O)Nc1cccc(Cl)c1 (stereo unspecified) . 1.63

Field request: log10(solubility kinetic) | item: "O=S(=O)(c1ccc(=S)[nH]c1)N1CCCCC1" 1.34

Fill in: log10(solubility kinetic) of "O=C(Cc1ccc([N+](=O)[O-])cc1)N1CCN(c2ccc([N+](=O)[O-])cc2)CC1" is ___ 0.72

Value lookup for log10(solubility kinetic); key = "CC(=O)c1ccc(Sc2ccccn2)c([N+](=O)[O-])c1" 1.58

Data request, read-out log10(solubility kinetic), for "CCc1ccccc1OCC(=O)OCC(=O)N1CC(=O)Nc2ccccc21" 1.55

Report log10(solubility kinetic) for O=C(COc1ccccc1C(=O)O)NC1CCCc2ccccc21 (stereo unspecified) please. 1.14

Which log10(solubility kinetic) value is on record for CC(O)CNc1nc2c(c(=O)n(Cc3cccc(Cl)c3)c(=O)n2C)n1C (stereo unspecified) ? 1.70

// query log10(solubility kinetic) value for entry "Cc1cc(C)c(OCCn2ccnc2)c(C)c1" 1.50

Field request: log10(solubility kinetic) | item: "Brc1ccc(OCCCCN2CCCCC2)cc1" 1.61

Please look up its log10(solubility kinetic): "Cc1ccc(-c2cnc(-c3ccccc3C(=O)O)o2)cc1" 1.55

Quick check: log10(solubility kinetic) of "CCn1c(=O)c(C(=O)CN(C)CC(=O)Nc2cccc(F)c2)c(N)n(Cc2ccccc2)c1=O" ? 1.19

Fill in the blank: the reported log10(solubility kinetic) of "Cc1ccc(C)c(C(=O)CN2C(=O)NC3(CCCCCCC3)C2=O)c1" is ____. 0.41

So what's the measured log10(solubility kinetic) for this one? "CCCCOc1ccc(C(=O)NCC(=O)OCC(=O)c2c(N)n(C)c(=O)n(C)c2=O)cc1" 1.04

###

Task for the reader: assign each of the following compounds its reported solubility kinetic.
conditions: buffer; pH 7.4; 200.0 µM

Consider the compound CCOC(=O)NC(C)N1C(=O)C2C3C=CC(C3)C2C1=O (configuration not stated) and give its measured solubility kinetic. > 41.7 µg/mL

Given the compound "CCCCCSc1ncccc1C(=O)O" , what is its reported solubility kinetic? > 33.8 µg/mL

Dear colleague, I am looking for the recorded solubility kinetic of the following compound: "CN1CCN(c2ccc(S(=O)(=O)N3CCOCC3)cc2NC(=O)CSCc2ccccc2)CC1" > 75.7 µg/mL

Record request: solubility kinetic value, item CCN(C(=O)CSc1nc2ccc(C)cc2[nH]1)C1CCS(=O)(=O)C1 (configuration not stated) > 55.1 µg/mL

Item under review: "C=CCNC(=O)COC(=O)c1ccc(Cl)c(S(N)(=O)=O)c1" . Reported solubility kinetic? > 49.9 µg/mL

Requested read-out: solubility kinetic. Entry: "CC(=Nc1ccccc1C(F)(F)F)c1ccncc1" < 0.3 µg/mL

Quick check: solubility kinetic of CCCOP(=O)(c1ccc(N(C)C)cc1)C(O)c1cc(OC)ccc1OC (configuration not stated) ? > 59 µg/mL
